- System: Foxtail, Giant (giant foxtail, Setaria faberi)
- test.summary: Test A1 postemergence, Foxtail, Giant
- Format: in vivo
- test.conditions: Postemergence, 31 g ai/ha; 0 to 100 scale (0 no effect, 100 complete control); 10 days
endpoint.label: Plant response rating, Foxtail, Giant
Reply with the value as a number alone.

Sample records with Plant response rating, Foxtail, Giant:
Plant response rating, Foxtail, Giant for Cc1c(NS(=O)(=O)C(F)(F)F)cc(C(=O)N2CCOCC2)c(C)c1Cl ?
0

What value of Plant response rating, Foxtail, Giant has been reported for the following compound? Cc1cc(C)c(N(C(=O)OC(C)C)S(=O)(=O)C(F)(F)F)cc1C1=NOC2CCCC12 (stereo not shown)
0

Next:
Requested field: Plant response rating, Foxtail, Giant. Item: Cc1cc(C)c(N(COC(=O)C(C)(C)C)S(=O)(=O)C(F)(F)F)cc1C(=O)N1CCOCC1
20

What does the record list as Plant response rating, Foxtail, Giant for CCC1ON=C(c2cc(N(C(=O)OCC(C)C)S(=O)(=O)C(F)(F)F)c(C)cc2C)C1CC (stereo not shown) ?
20

----------
Measured Plant response rating, Blackgrass by item
- Tested on: blackgrass (Alopecurus myosuroides)
- test.summary: Test A postemergence, blackgrass
- Type: in vivo
- test.conditions: Postemergence, 1000 g ai/ha; visual injury, 0 to 100 scale (0 no effect, 100 complete control), approx. 10 days
Just the number.

Use the examples below as a reference point.
Any idea what Plant response rating, Blackgrass was measured for Cc1cc(C)c(C(=O)N2CCC(Cl)CC2)cc1NS(=O)(=O)C(F)(F)F ?
40

What value of measured Plant response rating, Blackgrass is listed for COC(=O)C1CCN(C(=O)c2cc(NS(=O)(=O)C(F)(F)F)c(C)cc2C)CC1 ?
20

# Plant response rating, Blackgrass lookup, item Cc1cc(C)c(C(=O)N2CCC(C(C)(C)C)CC2)cc1NS(=O)(=O)C(F)(F)F
0

So what does the record say about Plant response rating, Blackgrass for Cc1ccc(C(=O)N2CCC(C(F)(F)F)CC2)cc1NS(=O)(=O)C(F)(F)F ?
20

Quick check: Plant response rating, Blackgrass of Cc1cc(C)c(C(=O)N2CCC(C#N)CC2)cc1NS(=O)(=O)C(F)(F)F ?
50

Note: attention shifts to another entry.
Request the reported Plant response rating, Blackgrass associated with Cc1ccc(C(=O)N2CCC(C(C)(C)C)CC2)cc1NS(=O)(=O)C(F)(F)F
20

----------
Recorded measurements of Ryegrass, Italian plant response rating, one per entry
- System: Ryegrass, Italian (Italian ryegrass, Lolium multiflorum)
- test.summary: Test A preemergence, Ryegrass, Italian
- Assay type: in vivo
- test.conditions: Preemergence, 125 g ai/ha; visual injury on 0 to 100 scale (0 no effect, 100 complete control), approximately 10 days
Please reply with the number alone, leaving off any unit.

Given the entry Cc1cc(-c2cc(N(S(=O)(=O)C(F)(F)F)S(=O)(=O)C(F)(F)F)c(C)cc2C)c(=O)n(C)n1 , what Ryegrass, Italian plant response rating was observed with Ryegrass, Italian (Italian ryegrass, Lolium multiflorum)?
80

---
Request: Ryegrass, Italian plant response rating, test system Ryegrass, Italian (Italian ryegrass, Lolium multiflorum), entry Cc1cc(C)c(N(S(=O)(=O)C(F)(F)F)S(=O)(=O)C(F)(F)F)cc1C1=NOC2(CCCCCC2)C1
30

Which Ryegrass, Italian plant response rating is reported with Ryegrass, Italian (Italian ryegrass, Lolium multiflorum) for this entry: COC1(OC)CCN(C(=O)c2cc(NS(=O)(=O)C(F)(F)F)c(C)cc2C)CC1 ?
80

Request - read-out Ryegrass, Italian plant response rating | tested on Ryegrass, Italian (Italian ryegrass, Lolium multiflorum) | compound Cc1cc(C)c(N(S(=O)(=O)C(F)(F)F)S(=O)(=O)C(F)(F)F)cc1C(=O)N(C)CC1CC1
50

Form entry - test system: Ryegrass, Italian (Italian ryegrass, Lolium multiflorum); read-out: Ryegrass, Italian plant response rating; compound: Cc1cc(C#N)c(C(=O)N(C)C)cc1NS(=O)(=O)C(F)(F)F
20

Request body: readout Ryegrass, Italian plant response rating, system Ryegrass, Italian (Italian ryegrass, Lolium multiflorum), query CCn1cc(-c2cc(N(S(=O)(=O)C(F)(F)F)S(=O)(=O)C(F)(F)F)c(C)cc2C)c(=O)n(CC)c1=O . Return the value.
100

----------
Catalogue of Kochia plant response rating values
- Test system: kochia (Bassia scoparia)
- test.summary: Test A postemergence, kochia
- Format: in vivo
- test.conditions: Postemergence, 500 g ai/ha; visual injury vs untreated controls after approx. 10 days; 0 to 100 scale (0 no effect, 100 complete control)
Would you mind answering with just the numeric figure?

Illustrative cases are given below, each with its answer.
Query Kochia plant response rating on kochia (Bassia scoparia) for Cc1cc(-c2cc(NS(=O)(=O)C(F)(F)F)c(C)cc2C)c(=O)n(C)n1
40

Which measured Kochia plant response rating belongs to Cc1cc(C)c(C2=NOC3(C2)CC(C)OC(C)C3)cc1NS(=O)(=O)C(F)(F)F (single isomer, unassigned) [Compound 173] , tested on kochia (Bassia scoparia)?
80

Form field - read-out: Kochia plant response rating; system: kochia (Bassia scoparia); submitted item: Cc1cc(C)c(-n2nccc(C)c2=O)cc1NS(=O)(=O)C(F)(F)F
0

Query Kochia plant response rating on kochia (Bassia scoparia) for Cc1cc(Cl)c(NS(=O)(=O)C(F)(F)F)cc1C(=O)N1CCC(Cl)CC1
70

# returns recorded Kochia plant response rating (system: kochia (Bassia scoparia)) for Cc1cc(C)c(C2=NOC3(C2)CC(C)(C)CC(C)(C)C3)cc1NS(=O)(=O)C(F)(F)F
10

What measured Kochia plant response rating is associated with C#CCN(CC#C)C(=O)c1cc(N(S(=O)(=O)C(F)(F)F)S(=O)(=O)C(F)(F)F)c(C)cc1C on kochia (Bassia scoparia)?
80

Lab request: please report Kochia plant response rating under test system kochia (Bassia scoparia) for Cc1cc(C)c(N(S(=O)(=O)C(F)(F)F)S(=O)(=O)C(F)(F)F)cc1C1=NOC2CCCC12 (stereo not shown)
90

# returns recorded Kochia plant response rating (system: kochia (Bassia scoparia)) for COC1CCCN(C(=O)c2cc(NS(=O)(=O)C(F)(F)F)c(C)cc2C)C1 (stereo not shown)
50

What is its Kochia plant response rating for kochia (Bassia scoparia)? Entry: Cc1cc(C)c(C2=NOC3(CCSCC3)C2)cc1NS(=O)(=O)C(F)(F)F
50

Recorded Kochia plant response rating for CCn1nc(Cl)cc(-c2cc(NS(=O)(=O)C(F)(F)F)c(C)cc2C)c1=O with kochia (Bassia scoparia), please?
60

Continuing:
Query Kochia plant response rating on kochia (Bassia scoparia) for COCC1(COC)CC(c2cc(NS(=O)(=O)C(F)(F)F)c(C)cc2C)=NO1
40

----------
- System: goosegrass (Eleusine indica)
- test.summary: Test A1 postemergence, goosegrass
- Assay type: in vivo
- test.conditions: Postemergence, 125 g ai/ha; 0 to 100 scale (0 no effect, 100 complete control); 10 days
endpoint.label: Plant response rating, Goosegrass
Answer with a bare number; do not write a unit.

Given Cc1cc(C)c(C2=NOC(C(C)C)C2)cc1NS(=O)(=O)C(F)(F)F (stereo not shown) , state its recorded Plant response rating, Goosegrass.
50

Quick check: Plant response rating, Goosegrass of Cc1cc(C)c(N2CC3(CCCCC3)CC2=O)cc1NS(=O)(=O)C(F)(F)F ?
0

For the compound Cc1cc(C)c(N2CCC3(CCC(C)CC3)C2=O)cc1NS(=O)(=O)C(F)(F)F (stereo not shown) , what Plant response rating, Goosegrass is on record?
70

Item Cc1cc(C)c(N(COC(=O)C(C)(C)C)S(=O)(=O)C(F)(F)F)cc1N1CCC2(CCC(F)(F)CC2)C1=O has what recorded Plant response rating, Goosegrass?
90

Requested field: Plant response rating, Goosegrass. Item: Cc1cc(C)c(N2Cc3cccc(Br)c3C2=O)cc1NS(=O)(=O)Cl
90

Reported Plant response rating, Goosegrass, compound Cc1cc(Cl)c(NS(=O)(=O)C(F)(F)F)cc1N1CCC2(CCCCC2)C1=O : ____
70

New cases:
Fill in the blank: the reported Plant response rating, Goosegrass of COc1cccc2c1C(=O)N(c1cc(N(COC(=O)C(C)(C)C)S(=O)(=O)Cl)c(C)cc1C)C2 is ____.
0

----------
Item-by-item account of Plant response rating, Ragweed
- System: ragweed (common ragweed, Ambrosia artemisiifolia)
- test.summary: Test A preemergence, ragweed
- Format: in vivo
- test.conditions: Preemergence, 500 g ai/ha; 0 to 100 scale (0 no effect, 100 complete control)
Please reply with the value in numeric form only.

Worked cases, Plant response rating, Ragweed given:
Which Plant response rating, Ragweed reading was recorded for the molecule CCn1cc(-c2cc(NS(=O)(=O)C(F)(F)F)c(C)cc2C)c(=O)n(C)c1=O ?
50

// Plant response rating, Ragweed lookup, key: C#CCN(CC#C)C(=O)c1cc(NS(=O)(=O)C(F)(F)F)c(C)cc1C
90

# query: Plant response rating, Ragweed of entry Cc1cc(C#N)c(C(=O)N(C)C)cc1NS(=O)(=O)C(F)(F)F
30

Others:
I have this molecule here, Cc1cc(F)c(C(=O)N2CCCCC2)cc1NS(=O)(=O)C(F)(F)F , and I need its recorded Plant response rating, Ragweed.
80

Return reported Plant response rating, Ragweed; argument: Cc1cc(C)c(C(=O)N(C)CC2CC2)cc1NS(=O)(=O)C(F)(F)F
80
